Molecular target: T1, hiR2-FL-S561A-T7 (human, UniProt Q6PJF5 1-856)
T1 sequence: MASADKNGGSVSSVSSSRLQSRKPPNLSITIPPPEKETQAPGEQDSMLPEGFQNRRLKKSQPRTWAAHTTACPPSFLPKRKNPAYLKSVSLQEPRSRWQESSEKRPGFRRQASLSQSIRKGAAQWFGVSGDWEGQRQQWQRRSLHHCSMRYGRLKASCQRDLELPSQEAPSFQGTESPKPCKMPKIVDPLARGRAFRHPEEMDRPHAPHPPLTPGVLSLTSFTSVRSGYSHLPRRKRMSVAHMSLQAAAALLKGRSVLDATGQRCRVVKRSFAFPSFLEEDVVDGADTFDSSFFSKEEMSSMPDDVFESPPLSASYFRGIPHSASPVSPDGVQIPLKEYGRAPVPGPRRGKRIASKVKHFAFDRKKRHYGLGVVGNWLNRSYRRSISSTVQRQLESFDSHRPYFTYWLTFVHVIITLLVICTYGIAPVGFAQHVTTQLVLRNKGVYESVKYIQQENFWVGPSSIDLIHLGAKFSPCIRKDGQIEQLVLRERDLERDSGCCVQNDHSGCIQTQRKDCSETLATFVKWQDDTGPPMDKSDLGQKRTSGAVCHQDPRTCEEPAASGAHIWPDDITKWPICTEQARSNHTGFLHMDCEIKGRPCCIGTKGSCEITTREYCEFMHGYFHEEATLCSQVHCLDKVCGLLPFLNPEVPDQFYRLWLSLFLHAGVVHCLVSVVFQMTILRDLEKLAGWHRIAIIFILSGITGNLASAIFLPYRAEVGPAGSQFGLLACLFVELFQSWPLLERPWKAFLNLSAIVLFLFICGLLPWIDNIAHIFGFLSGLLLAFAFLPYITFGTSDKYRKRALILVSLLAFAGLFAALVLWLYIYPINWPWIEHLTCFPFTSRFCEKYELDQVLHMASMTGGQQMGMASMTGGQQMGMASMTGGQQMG
Assay: FACS on MEF-DKO cells expressing the variant, 3 µg/ml antibody
loss of binding vs wild type for assorted binders

Worked cases, answers included:
| BINDER | loss of binding vs wild type |
| --- | --- |
| antibody 42 (antibody, V domains shown, mouse IgG, kappa light chain; also called clone #42; purified antibody 42) VH: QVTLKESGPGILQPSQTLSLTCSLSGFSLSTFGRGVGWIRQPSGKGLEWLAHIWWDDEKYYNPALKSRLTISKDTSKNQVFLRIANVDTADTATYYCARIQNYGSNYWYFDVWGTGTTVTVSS VL: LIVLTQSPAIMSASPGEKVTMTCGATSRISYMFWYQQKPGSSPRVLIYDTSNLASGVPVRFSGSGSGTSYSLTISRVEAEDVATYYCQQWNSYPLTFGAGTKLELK | ≥ 30% |
| antibody 43 (antibody, V domains shown, mouse IgG, kappa light chain; also called clone #43; purified antibody 43) VH: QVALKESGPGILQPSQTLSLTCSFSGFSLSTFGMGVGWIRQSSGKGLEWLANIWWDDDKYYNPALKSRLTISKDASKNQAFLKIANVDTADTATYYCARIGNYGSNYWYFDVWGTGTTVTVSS VL: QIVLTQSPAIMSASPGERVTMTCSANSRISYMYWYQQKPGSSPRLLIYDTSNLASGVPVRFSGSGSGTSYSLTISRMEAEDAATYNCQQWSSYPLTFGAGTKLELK | ≥ 30% |

Now examine the next entry.
Which loss of binding vs wild type value belongs to antibody 44 (antibody, V domains shown, mouse IgG, kappa light chain; also called clone #44; purified antibody 44) VH: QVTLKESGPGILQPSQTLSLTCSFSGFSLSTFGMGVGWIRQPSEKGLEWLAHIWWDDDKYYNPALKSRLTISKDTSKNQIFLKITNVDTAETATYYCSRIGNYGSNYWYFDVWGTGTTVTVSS VL: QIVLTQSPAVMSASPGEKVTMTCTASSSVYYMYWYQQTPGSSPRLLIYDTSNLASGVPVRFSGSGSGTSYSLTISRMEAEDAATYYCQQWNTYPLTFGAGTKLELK ?
≥ 30%
